tested on: thyroid hormone receptor (rat, GH3 cells); assay: qHTS assay to identify small molecule agonists of the thyroid receptor (TR) signaling pathway (AID 743066); details: GH3.TRE-Luc cells, TR agonist luciferase, 24 h; series mostly up to 83.9 µM; also: % is scaled to controls: 0 for no effect and ±100 for the full control effect
Records with an inconclusive call do not appear. The source made the active and inactive calls. Calls follow the shape of the full dose curve.

molecule	experimental_system	outcome
CCCCCCOC(=O)c1cccnc1	thyroid hormone receptor (rat, GH3 cells)	inactive
NCCCC[C@H](NC(=O)[C@@H]1CCCN1C(=O)[C@@H]1CSSC[C@H](N)C(=O)N[C@@H](Cc2ccc(O)cc2)C(=O)N[C@@H](Cc2ccccc2)C(=O)N[C@@H](CCC(N)=O)C(=O)N[C@@H](CC(N)=O)C(=O)N1)C(=O)NCC(N)=O	thyroid hormone receptor (rat, GH3 cells)	inactive
CC(C)=CCC/C(C)=C/CC/C(C)=C/CC/C(C)=C/CC1=C(C)C(=O)c2ccccc2C1=O	thyroid hormone receptor (rat, GH3 cells)	inactive
CC1CCCCN1CCCOC(=O)c1ccccc1 (stereo not given)	thyroid hormone receptor (rat, GH3 cells)	inactive
NC[C@H]1O[C@H](O[C@H]2[C@H](O)[C@@H](O[C@H]3O[C@H](CO)[C@@H](O)[C@H](N)[C@H]3O)[C@H](N)C[C@@H]2N)[C@H](N)C[C@@H]1O	thyroid hormone receptor (rat, GH3 cells)	inactive

###

Test: qHTS assay for small molecule disruptors of the mitochondrial membrane potential (AID 720635); also: potency is read from the fitted curve at half-maximal effect
Conditions: HepG2 mitochondrial membrane potential, Mito-MPS dye ratio; series mostly up to 83.2 µM
Excerpt: U.S. Tox21 Program National Center for Advancing Translational Sciences [NCATS] NIH Chemical Genomics Center [NCGC] U.S. Environmental Protection Agency [EPA] National Institutes of Environmental Health Sciences [NIEHS] National Toxicology Program [NTP] U.S. Food and Drug Administration [FDA] […] The dye accumulates in the mitochondria of healthy cells as aggregates, with red fluorescence. […]
Results filed as inconclusive are left out. Calls of active or inactive are those of the source. The call rests on the fitted dose curve; in most records, active means well fitted inhibition curve with a large enough effect in the signal ratio in the repeat runs; inconclusive means weak or mixed curves, or effect the other way; inactive means flat fitted curve, though single readings scatter; the % refers to the signal ratio.

compound	Potency
CC(=O)[C@]1(O)Cc2c(O)c3c(c(O)c2[C@@H](O[C@H]2C[C@H](N)[C@H](O)[C@H](C)O2)C1)C(=O)c1ccccc1C3=O	5.55 µM (active)
CC1(C)CCC(NC(=O)[C@@H](N)CCC(=O)O)CC1	inactive
Oc1ccc(Cl)cc1C1CCCC1	3.86 µM (active)
CN1C(C(=O)Nc2ccccn2)C(=O)c2sc(Cl)cc2S1(=O)=O (centres undefined)	8.41 µM (active)
Cc1c(O)c(=O)ccn1C	inactive
CC12CCC(C[N+](C)(CCC[N+](C)(C)C)C1)C2(C)C (centres undefined)	inactive
O=C(O)c1cc2cc(Cc3cccnc3)ccc2o1	inactive
CO[C@H](C(=O)[C@@H](O)[C@@H](C)O)C1Cc2cc3cc(O[C@H]4C[C@@H](O[C@H]5C[C@@H](O)[C@H](O)[C@@H](C)O5)[C@@H](O)[C@@H](C)O4)c(C)c(O)c3c(O)c2C(=O)[C@H]1O[C@H]1C[C@@H](O[C@H]2C[C@@H](O[C@H]3C[C@](C)(O)[C@H](O)[C@@H](C)O3)[C@H](O)[C@@H](C)O2)[C@H](O)[C@@H](C)O1 (some centres undefined)	27.8 µM (active)
Cc1ccc(C(C)(C)c2ccc(C)cc2)cc1	inactive
O=C(O)Cc1nn(Cc2ccc(Br)cc2F)c(=O)c2ccccc12	inactive
CC(C)C[C@H](NC(=O)[C@@H](COC(C)(C)C)NC(=O)[C@H](Cc1ccc(O)cc1)NC(=O)[C@H](CO)NC(=O)[C@H](Cc1c[nH]c2ccccc12)NC(=O)[C@H](Cc1cnc[nH]1)NC(=O)[C@@H]1CCC(=O)N1)C(=O)N[C@@H](CCCN=C(N)N)C(=O)N1CCC[C@H]1C(=O)NNC(N)=O	inactive
CC(=NCc1ccccc1)c1ccccc1O	inactive
CNCC(=O)N[C@@H](CCCN=C(N)N)C(=O)N[C@H](C(=O)N[C@@H](Cc1ccc(O)cc1)C(=O)N[C@H](C(=O)N[C@@H](Cc1cnc[nH]1)C(=O)N1CCC[C@H]1C(=O)N[C@@H](C)C(=O)O)C(C)C)C(C)C	inactive
O=C(O)c1cc(O)c2c(c1)[C@H]([C@H]1c3cc(C(=O)O)cc(O)c3C(=O)c3c(O[C@@H]4O[C@H](CO)[C@@H](O)[C@H](O)[C@H]4O)cccc31)c1cccc(O[C@@H]3O[C@H](CO)[C@@H](O)[C@H](O)[C@H]3O)c1C2=O	inactive

###

assay: Caspase-3/7 induction in HepG2 cells by small molecules, qHTS cell viability counter screen (AID 1346981); settings: CellTiter-Fluor fluorescence, 17 h; series mostly up to 92.4 µM; also: nearly all actives have a fitted effect of over 30% in size; also: potency is read from the fitted curve at half-maximal effect
Inconclusive results are not listed. Activity calls are given as the source filed them. Calls come from the whole dose curve; as a rule, active = well fitted cell-killing curve with a large enough effect in the repeat runs; inconclusive = weak or mixed curves, or effect the other way; inactive = flat fitted curve, though single readings scatter.
measured_endpoint: Potency

> print(dat)
                                   compound            result
1                           CC(C)C(=O)C(C)C          inactive
2                             O=C1CCC(=O)N1          inactive
3        Cc1ccc(N=Nc2c(O)ccc3ccccc23)c(C)c1  8.41 µM (active)
4     C=C(C)C1CCC(C)CC1O (stereo not drawn)          inactive
5                     O=C(Cl)c1ccc(Cl)cc1Cl          inactive
6                            Clc1cccc(Cl)n1          inactive
7  O=C(Nc1ccc([N+](=O)[O-])cc1)Nc1ccc([N+](=O)[O-])cc1 (tested in a mixture with another compound)          inactive
8  CC1=C(/C=C/C(C)=C/C=C/C(C)=C\C(=O)O)C(C)(C)CCC1          inactive

###

test: qHTS RealTime-Glo MT Cell Viability Assay in HEK293 cells - 16 hour (AID 1224872); settings: RealTime-Glo luminescence; series mostly up to 76.8 µM; also: nearly all actives have a fitted effect of over 50% in size
Results filed as inconclusive are left out. Activity calls are given as the source filed them. Calls follow the shape of the dose curve; as a rule, active = well fitted cell-killing curve with a large enough effect in the repeat runs; inconclusive = weak or mixed curves, or effect the other way; inactive = flat fitted curve, though single readings scatter.
Labels: 1.0 (active), 0.0 (inactive)

> print(dat)
                                    compound  answer.label
 1                            CCc1cccc(CC)c1           0.0
 2     Nc1ccc2c(S(=O)(=O)O)cccc2c1S(=O)(=O)O           0.0
 3  CC(Cc1ccc(O)c(O)c1)C(C)Cc1ccc(O)c(O)c1 (configuration not stated)           1.0
 4  COc1cc(OC)nc(NC(=O)NS(=O)(=O)Nc2ccccc2C(=O)N(C)C)n1           0.0
 5                      Oc1ccc(Cl)cc1C1CCCC1           1.0
 6  N#Cc1ccc(C/C(=N/NC(=O)Nc2ccc(OC(F)(F)F)cc2)c2cccc(C(F)(F)F)c2)cc1           0.0
 7             Nc1c(Br)cc([N+](=O)[O-])cc1Br           0.0
 8             O=[N+]([O-])c1ccc(O)c2ncccc12           0.0
 9              Nc1cc([N+](=O)[O-])cc(Cl)c1O           0.0
10                             O=c1cc[nH]cc1           0.0
11                         CCOC(=O)OC(=O)OCC           0.0
12        Nc1ccc(Oc2cccc(Oc3ccc(N)cc3)c2)cc1           0.0
13    NC(=O)C1CO1 (configuration not stated)           0.0
14                                 NCc1ccco1           0.0
15         CC/C=C\C/C=C\C/C=C\CCCCCCCC(=O)OC           0.0
16                                     CCSCC           0.0
17         CN(C/C=C/c1ccccc1)Cc1cccc2ccccc12           0.0
18              C/C=C/C(=O)C1=C(C)C=CCC1(C)C           0.0
19           ClC(c1ccccc1)(c1ccccc1)c1ccccc1           0.0
20  CCC1(C)C(=O)N(Cl)C(=O)N1Cl (configuration not stated)           0.0
21  C=CC(=O)O[C@H]1C[C@@H]2CC[C@@]1(C)C2(C)C           0.0
22                  CCOC=C(C(=O)OCC)C(=O)OCC           0.0
23          c1ccc2cc3c4ccccc4c4ccccc4c3cc2c1           0.0
24               c1ccc(-c2nc3ccccc3[nH]2)cc1           1.0
25                             CC(=O)CC(N)=O           0.0
26                   CCCC(=O)c1cc(O)c(O)cc1O           0.0
27               CSc1nnc(C(C)(C)C)c(=O)[nH]1           0.0
28  CCN(CCC#N)c1ccc(N=Nc2ccc([N+](=O)[O-])cc2)cc1           0.0
29  COc1cccc(-c2ccc(/C=C\CN3CCCCCC3)cc2Cl)c1           1.0
30                     CCc1c(C)cc(N)c(CC)c1N           0.0
31                                 SC1CCCCC1           0.0
32                      Clc1ccc2c(Cl)ccnc2c1           0.0
33              CCN(CC)c1ccc(N=Nc2ccccc2)cc1           1.0
34                             c1ccc2occc2c1           0.0
35                            CC(C)=NNC(N)=S           0.0
36          CC(=O)Nc1ccc(N=Nc2cc(C)ccc2O)cc1           0.0
37                        [Cl][Sc]([Cl])[Cl]           0.0
38  C/C(=C\c1ccc(C(=O)O)cc1)c1ccc2c(c1)C(C)(C)CCC2(C)C           0.0
39                 N#Cc1nc(Cl)c(Cl)c(Cl)c1Cl           1.0
40                Cn1c(=O)[nH]c2ncn(C)c2c1=O           0.0
41                           O=C1OCc2ccccc21           0.0
42  C=CCc1cc(S(=O)(=O)c2ccc(O)c(CC=C)c2)ccc1O           1.0
43         CCOC(=O)[C@H](O)[C@@H](O)C(=O)OCC           0.0
44              c1ccc(-c2ccccc2-c2ccccc2)cc1           0.0
45                               COCCC(=O)OC           0.0
46                             Cc1cccc(C)c1C           0.0
47                          Oc1ccc2c(c1)CCC2           0.0
48                  O=[N+]([O-])c1ccc(CO)cc1           0.0
49  CN(C[C@@H](CC[N+]12CCC(C3CCCCC3)(CC1)CC2)c1ccc(Cl)c(Cl)c1)C(=O)c1cc(C(F)(F)F)cc(C(F)(F)F)c1           1.0
50                               C=Cc1ccncc1           0.0
51           CCCCCCCCOC(=O)c1cc(O)c(O)c(O)c1           1.0
52                         Cc1ccc2n[nH]nc2c1           0.0
53                Nc1ccc(F)c([N+](=O)[O-])c1           0.0
54    Cc1ccc2nc(-c3ccc(N)cc3)sc2c1S(=O)(=O)O           0.0
55  CC1=C(/C=C/C(C)=C/C=C/C(C)=C\C(=O)O)C(C)(C)CCC1           0.0
56  CCc1cccc(C)c1N(C(=O)C(=O)O)C(C)COC (configuration not stated)           0.0
57  CC/C(=C(/c1ccc(O)cc1)c1ccc(OCCN(C)C)cc1)c1ccccc1           1.0
